# Measurement Target: T1, NOV1401
# T1 construct: It was amine-coupled to the chip in SPR, and used soluble and biotinylated in SET; also called anti-FXI/FXIa antibody NOV1401; anti-Factor XI/FXIa antibody NOV1401
# T1 sequence (VL, as listed by the source): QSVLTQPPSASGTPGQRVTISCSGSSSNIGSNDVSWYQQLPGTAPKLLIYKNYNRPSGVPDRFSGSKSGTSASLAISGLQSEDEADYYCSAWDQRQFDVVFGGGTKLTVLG
# Test: Solution equilibrium titration (SET), 1:1 fit, average
Kindly supply the reported Kd values for the records listed here.
One number for each entry, in pM.

// below: answered binders
* IDT4 (Fab, V domains shown, Fab; also called anti-NOV1401 Fab IDT4) VH: QVQLVESGGGLVKPGGSLRLSCAASGFTFSSAAVHWVRQAPGKGLEWVGRIKSKASGGTTDYAAPVKGRFTISRDDSKNTLYLQMNSLKTEDTAVYYCARDSPSISSYSIPYFSGMDVWGQGTLVTVSS VL: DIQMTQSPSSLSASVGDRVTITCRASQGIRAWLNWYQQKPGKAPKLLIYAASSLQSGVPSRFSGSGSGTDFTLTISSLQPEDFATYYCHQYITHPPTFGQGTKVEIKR | 970
* IDT1 (Fab, V domains shown, Fab (heavy chain is VH-CH1); also called anti-NOV1401 Fab IDT1) VH: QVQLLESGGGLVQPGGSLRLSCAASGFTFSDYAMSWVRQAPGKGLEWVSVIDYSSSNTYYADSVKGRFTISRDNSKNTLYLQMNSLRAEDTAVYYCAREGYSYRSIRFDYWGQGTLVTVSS VL: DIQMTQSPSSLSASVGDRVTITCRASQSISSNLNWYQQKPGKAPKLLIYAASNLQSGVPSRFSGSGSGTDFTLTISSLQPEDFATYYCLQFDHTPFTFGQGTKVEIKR | 110

--- query ---
I have this binder here, IDT2 (Fab, V domains shown, Fab; also called anti-NOV1401 Fab IDT2) VH: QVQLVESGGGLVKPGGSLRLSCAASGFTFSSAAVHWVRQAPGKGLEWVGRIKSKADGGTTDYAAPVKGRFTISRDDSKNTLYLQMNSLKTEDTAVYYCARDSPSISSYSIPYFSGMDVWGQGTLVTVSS VL: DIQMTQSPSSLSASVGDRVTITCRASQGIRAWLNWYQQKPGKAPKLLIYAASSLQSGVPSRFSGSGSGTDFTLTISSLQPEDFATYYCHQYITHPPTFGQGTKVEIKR , and I need its recorded Kd.
100
